studyTarget: RNA demethylase ALKBH5 (Homo sapiens)
Sequence (Q6P6C2 whole entry): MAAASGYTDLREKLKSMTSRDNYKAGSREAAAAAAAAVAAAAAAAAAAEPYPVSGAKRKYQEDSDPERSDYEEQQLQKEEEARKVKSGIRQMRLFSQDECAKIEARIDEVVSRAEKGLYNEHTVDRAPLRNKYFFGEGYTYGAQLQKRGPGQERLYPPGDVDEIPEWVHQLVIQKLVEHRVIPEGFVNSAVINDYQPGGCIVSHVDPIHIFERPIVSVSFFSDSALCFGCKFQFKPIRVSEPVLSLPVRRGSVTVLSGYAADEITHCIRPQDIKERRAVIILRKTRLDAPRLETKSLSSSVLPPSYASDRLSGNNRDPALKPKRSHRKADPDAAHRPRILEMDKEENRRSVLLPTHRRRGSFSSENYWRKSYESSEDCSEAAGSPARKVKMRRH
readoutType: IC50 (nM)

>  <compound>
O=C(O)CSC(O)C(=O)c1ccccc1 (stereo unspecified)

>  <readoutType>
IC50

>  <unitInfo>
nM

>  <observed>
840

$$$$
